Parameter: log10 IC50. Scope: all listed entries.
System: cancer cell lines
protocolDescription: Cancer cell proliferation activity (CellTiterGlo, 72 h)
Assay type: cell-based
experimentalConditions: Homo sapiens, U2OS, 72 h, U2OS cell line (bone), 72 h; read-out: IC50
Experimental: Dose response relationships on cell proliferation was assessed for representative Compounds of the Disclosure on cancer cell lines. […] Cells were cultured in the appropriate media. […] After incubation for 72 h at 37° C. at 5% or 10% CO2 dependent on the medium, cell plates were equilibrated to room temperature for one hour, CellTiterGlo reagent (Promega) was added and luminescence was measured approximately an hour later using a luminometer. […]
The base-10 logarithm of IC50, taken with IC50 in nM, is what appears here.

// known answers, use as guide
CCC[C@]1(CO)O[C@@H](n2cnc3c(N)nc(F)nc32)C[C@@H]1O : 2.71
C[C@]1(CO)O[C@@H](n2cnc3c(N)nc(F)nc32)C[C@@H]1O : 3.05
COC[C@]1(CO)O[C@@H](n2cnc3c(N)nc(F)nc32)C[C@@H]1O : 2.79

Give me measured log10 IC50, please, for this molecule: "CC(C)C[C@]1(CO)O[C@@H](n2cnc3c(N)nc(F)nc32)C[C@@H]1O" 3.42

Give me measured log10 IC50, please, for this molecule: "CC[C@]1(CO)O[C@@H](n2cnc3c(N)nc(F)nc32)[C@H](O)[C@@H]1O" 1.90

Give me measured log10 IC50, please, for this molecule: Nc1ccn([C@@H]2O[C@H](CO)[C@@H](O)C2(F)F)c(=O)n1 [gemcitabine, reference compound] 0.76

====

Test system: cancer cell lines
protocolDescription: Cancer cell proliferation activity (CellTiterGlo, 72 h)
Type: cell-based
experimentalConditions: 72 h, 5637 (bladder), 72 h; read-out: IC50 cell proliferation
Exam item: assign true (1) to entries whose IC50 is below 2 µM and false (0) to entries at or above 2 µM. Note that a value of exactly 2 µM receives false (0).

// below: answered compounds
C[C@]1(CO)O[C@@H](n2ccc(N)nc2=O)C(F)(F)[C@@H]1O : false (0)
Nc1ccn([C@H]2C[C@H](O)[C@](CO)(CF)O2)c(=O)n1 : true (1)
N#C[C@]1(CO)O[C@@H](n2cc(F)c(=O)[nH]c2=O)C[C@@H]1O : false (0)
Nc1nc(F)nc2c1ncn2[C@@H]1O[C@H](CO)[C@@H](O)[C@H]1O : true (1)
Nc1nc(F)nc2c1ncn2[C@H]1C[C@H](O)[C@](CO)(C2CC2)O1 : false (0)
C#C[C@]1(CO)O[C@@H](n2cc(Cl)c(N)nc2=O)C[C@@H]1O : true (1)

Determine whether this compound shows IC50 lower than 2 µM (ties excluded): "Nc1nc(F)nc2c1ncn2[C@@H]1O[C@H](CO)[C@@H](O)[C@@H]1O" false (0)

Determine whether this compound shows IC50 lower than 2 µM (ties excluded): "Nc1nc(F)nc2c1ncn2[C@H]1C[C@H](O)[C@](CO)(CC2CC2)O1" false (0)

====

Test system: cancer cell lines
protocolDescription: Cancer cell proliferation activity (CellTiterGlo, 72 h)
Format: cell-based
experimentalConditions: Homo sapiens, A549, 72 h, A549 (lung), 72 h; read-out: IC50 cell proliferation
testReadout: log10 IC50 (log10 of the value in nM)
The base-10 logarithm of IC50, taken with IC50 in nM, is what appears here.

CCC[C@]1(CO)O[C@@H](n2cnc3c(N)nc(F)nc32)[C@H](O)[C@@H]1O : 1.78
C[C@]1(CO)O[C@@H](n2cnc3c(N)nc(F)nc32)[C@H](O)[C@@H]1O : 2.57
C[C@]1(CO)O[C@@H](n2ccc(N)nc2=O)C(F)(F)[C@@H]1O : 3.46
Nc1nc(F)nc2c1ncn2[C@H]1C[C@H](O)[C@@H](CO)O1 : 3.12
C[C@]1(CO)O[C@@H](n2ccc(N)nc2=O)[C@@H](O)[C@@H]1O : 3.37
Nc1ccn([C@H]2C[C@H](O)[C@](CO)(CF)O2)c(=O)n1 : 2.64
Nc1nc(=O)n([C@H]2C[C@H](O)[C@](CO)(CF)O2)cc1F : 1.88
Nc1nc(F)nc2c1ncn2[C@@H]1O[C@H](CO)[C@@H](O)[C@@H]1O : 3.95
Nc1nc(F)nc2c1ncn2[C@@H]1O[C@H](CO)[C@@H](O)[C@H]1O : 1.60

Please examine the following record next.
Give me measured log10 IC50, please, for this molecule: "Nc1nc(=O)n([C@H]2C[C@H](O)[C@@H](CO)O2)cc1F" 1.15

Ref: patent US20250215039A1
